ASSAYED_SYSTEM: von Hippel-Lindau disease tumor suppressor/Bromodomain-containing protein 7 (Homo sapiens) (UniProt Q9NPI1+P40337)
Sequence (P40337 whole entry, looked up): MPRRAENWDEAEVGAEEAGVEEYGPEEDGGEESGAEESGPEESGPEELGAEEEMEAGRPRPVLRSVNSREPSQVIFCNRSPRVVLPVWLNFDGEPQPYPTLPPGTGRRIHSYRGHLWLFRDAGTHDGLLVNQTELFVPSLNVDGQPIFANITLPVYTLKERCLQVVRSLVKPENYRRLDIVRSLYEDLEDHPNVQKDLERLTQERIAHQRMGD
Sequence (Q9NPI1 whole entry, looked up): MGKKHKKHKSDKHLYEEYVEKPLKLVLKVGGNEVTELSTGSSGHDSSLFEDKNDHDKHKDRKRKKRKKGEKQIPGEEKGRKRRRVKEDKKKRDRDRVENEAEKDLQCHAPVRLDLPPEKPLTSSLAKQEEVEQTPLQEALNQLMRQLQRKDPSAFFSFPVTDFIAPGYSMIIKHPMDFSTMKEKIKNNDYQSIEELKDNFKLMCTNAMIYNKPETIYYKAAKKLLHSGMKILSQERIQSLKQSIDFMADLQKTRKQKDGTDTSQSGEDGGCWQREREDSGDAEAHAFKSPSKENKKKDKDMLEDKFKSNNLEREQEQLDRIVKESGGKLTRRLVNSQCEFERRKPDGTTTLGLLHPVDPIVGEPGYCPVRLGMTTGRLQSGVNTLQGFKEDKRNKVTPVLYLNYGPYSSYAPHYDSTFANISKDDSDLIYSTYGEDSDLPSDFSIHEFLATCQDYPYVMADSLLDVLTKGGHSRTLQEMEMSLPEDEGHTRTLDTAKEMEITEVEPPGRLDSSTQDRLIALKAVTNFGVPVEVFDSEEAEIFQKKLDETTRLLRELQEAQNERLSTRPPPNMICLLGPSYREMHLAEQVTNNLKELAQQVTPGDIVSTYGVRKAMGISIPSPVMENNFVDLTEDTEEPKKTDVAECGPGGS
TEST: PROTAC activity at VHL/BRD7 in human HeLa cells assessed as remaining BRD7 protein level at 1 uM incubated for 16 hrs by Western blot analysis relative to control
Format: cell-based
MEASURE: Activity (%)
State just the number; it will be interpreted in %.

Using the record for "COc1cc(-c2cn(C)c(=O)c3cnccc23)cc(OC)c1CN1CCN(CCOCCOCCOCCOCC(=O)N[C@H](C(=O)N2C[C@H](O)C[C@H]2C(=O)NCc2ccc(-c3scnc3C)cc2)C(C)(C)C)CC1" , report its Activity.
73

Using the record for "COc1cc(-c2cn(C)c(=O)c3cnccc23)cc(OC)c1CN1CCN(CCOCCOCCOCCOCCOc2cc(-c3scnc3C)ccc2CNC(=O)[C@@H]2C[C@@H](O)CN2C(=O)[C@@H](NC(=O)C2(C#N)CC2)C(C)(C)C)CC1" , report its Activity.
124

Using the record for "COc1cc(-c2cn(C)c(=O)c3cnccc23)cc(OC)c1CN1CCN(CCOCCOCCOc2cc(-c3scnc3C)ccc2CNC(=O)[C@@H]2C[C@@H](O)CN2C(=O)[C@@H](NC(C)=O)C(C)(C)C)CC1" , report its Activity.
107

Using the record for "COc1cc(-c2cn(C)c(=O)c3cnccc23)cc(OC)c1CN1CCN(CCOCCOCCOCCOCCOc2cc(-c3scnc3C)ccc2CNC(=O)[C@@H]2C[C@@H](O)CN2C(=O)[C@@H](NC(C)=O)C(C)(C)C)CC1" , report its Activity.
98

---

ASSAYED_SYSTEM: von Hippel-Lindau disease tumor suppressor/Bromodomain-containing protein 7 (Homo sapiens) (UniProt Q9NPI1+P40337)
TEST: PROTAC activity at VHL/BRD7 in human HeLa cells assessed as remaining BRD7 protein level at 1 uM incubated for 4 hrs by Western blot analysis relative to control
Type: cell-based
Kindly state Activity for each of the entries shown.
State just the number; it will be interpreted in %.

Using the record for "COc1cc(-c2cn(C)c(=O)c3cnccc23)c(OC)cc1CN1CCN(CCOCCOc2cc(-c3scnc3C)ccc2CNC(=O)[C@@H]2C[C@@H](O)CN2C(=O)[C@@H](NC(=O)C2(F)CC2)C(C)(C)C)CC1" , report its Activity.
3

Using the record for "COc1cc(-c2cn(C)c(=O)c3cnccc23)cc(OC)c1CN1CCN(CCOCCOCCOCCOCCOCC(=O)N[C@H](C(=O)N2C[C@H](O)C[C@H]2C(=O)NCc2ccc(-c3scnc3C)cc2)C(C)(C)C)CC1" , report its Activity.
104

Using the record for "COc1cc(-c2cn(C)c(=O)c3cnccc23)cc(OC)c1CN1CCN(CCOCCOCCOCCOCC(=O)N[C@H](C(=O)N2C[C@H](O)C[C@H]2C(=O)NCc2ccc(-c3scnc3C)cc2)C(C)(C)C)CC1" , report its Activity.
81

Using the record for "COc1cc(-c2cn(C)c(=O)c3cnccc23)cc(OC)c1CN1CCN(CCOCCOCCOCCOCCOc2cc(-c3scnc3C)ccc2CNC(=O)[C@@H]2C[C@@H](O)CN2C(=O)[C@@H](NC(=O)C2(C#N)CC2)C(C)(C)C)CC1" , report its Activity.
89

Using the record for "COc1cc(-c2cn(C)c(=O)c3cnccc23)cc(OC)c1CN1CCN(CCOCCOCCOCCOCCOc2cc(-c3scnc3C)ccc2CNC(=O)[C@@H]2C[C@@H](O)CN2C(=O)[C@@H](NC(=O)C2(F)CC2)C(C)(C)C)CC1" , report its Activity.
110

---

Kindly state Activity for each of the entries shown.
ASSAYED_SYSTEM: von Hippel-Lindau disease tumor suppressor/Bromodomain-containing protein 7 (Homo sapiens) (UniProt Q9NPI1+P40337)
TEST: PROTAC activity at VHL/BRD7 in human HeLa cells assessed as remaining BRD7 protein level at 1 uM incubated for 4 hrs by Western blot analysis relative to control
Format: cell-based

Using the record for "COc1cc(-c2cn(C)c(=O)c3cnccc23)cc(OC)c1CN1CCN(CCCCCOc2cc(-c3scnc3C)ccc2CNC(=O)[C@@H]2C[C@@H](O)CN2C(=O)[C@@H](NC(=O)C2(F)CC2)C(C)(C)C)CC1" , report its Activity.
10%

Using the record for "COc1cc(-c2cn(C)c(=O)c3cnccc23)c(OC)cc1CN1CCN(CCOCCOCCOc2cc(-c3scnc3C)ccc2CNC(=O)[C@@H]2C[C@@H](O)CN2C(=O)[C@@H](NC(=O)C2(F)CC2)C(C)(C)C)CC1" , report its Activity.
126%

Using the record for "COc1cc(-c2cn(C)c(=O)c3cnccc23)c(OC)cc1CN1CC(NC(=O)CCCCOCCOc2cc(-c3scnc3C)ccc2CNC(=O)[C@@H]2C[C@@H](O)CN2C(=O)[C@@H](NC(=O)C2(F)CC2)C(C)(C)C)C1" , report its Activity.
250%

Using the record for "COc1cc(-c2cn(C)c(=O)c3cnccc23)cc(OC)c1CN1CCN(CCCCCOCCOc2cc(-c3scnc3C)ccc2CNC(=O)[C@@H]2C[C@@H](O)CN2C(=O)[C@@H](NC(=O)C2(F)CC2)C(C)(C)C)CC1" , report its Activity.
98%

Using the record for "COc1cc(-c2cn(C)c(=O)c3cnccc23)c(OC)cc1CN1CC(NC(=O)COCCOCCOc2cc(-c3scnc3C)ccc2CNC(=O)[C@@H]2C[C@@H](O)CN2C(=O)[C@@H](NC(=O)C2(F)CC2)C(C)(C)C)C1" , report its Activity.
280%

Using the record for "COc1cc(-c2cn(C)c(=O)c3cnccc23)cc(OC)c1CN1CCN(CCOCCOCCOc2cc(-c3scnc3C)ccc2CNC(=O)[C@@H]2C[C@@H](O)CN2C(=O)[C@@H](NC(=O)C2(C#N)CC2)C(C)(C)C)CC1" , report its Activity.
88%

Using the record for "COc1cc(-c2cn(C)c(=O)c3cnccc23)cc(OC)c1CN1CCN(CCOCCOCC(=O)N[C@H](C(=O)N2C[C@H](O)C[C@H]2C(=O)NCc2ccc(-c3scnc3C)cc2)C(C)(C)C)CC1" , report its Activity.
68%

Using the record for "COc1cc(-c2cn(C)c(=O)c3cnccc23)cc(OC)c1CN1CCN(CCOCCOCCOCCOCCOc2cc(-c3scnc3C)ccc2CNC(=O)[C@@H]2C[C@@H](O)CN2C(=O)[C@@H](NC(C)=O)C(C)(C)C)CC1" , report its Activity.
109%

Using the record for "COc1cc(-c2cn(C)c(=O)c3cnccc23)cc(OC)c1CN1CCN(CCCCCOCCOCC(=O)N[C@H](C(=O)N2C[C@H](O)C[C@H]2C(=O)NCc2ccc(-c3scnc3C)cc2)C(C)(C)C)CC1" , report its Activity.
106%

Using the record for "COc1cc(-c2cn(C)c(=O)c3cnccc23)c(OC)cc1CN1CCN(CCCCCOc2cc(-c3scnc3C)ccc2CNC(=O)[C@@H]2C[C@@H](O)CN2C(=O)[C@@H](NC(=O)C2(F)CC2)C(C)(C)C)CC1" , report its Activity.
151%

---

ASSAYED_SYSTEM: von Hippel-Lindau disease tumor suppressor/Bromodomain-containing protein 7 (Homo sapiens) (UniProt Q9NPI1+P40337)
TEST: PROTAC activity at VHL/BRD7 in human HeLa cells assessed as remaining BRD7 protein level at 1 uM incubated for 16 hrs by Western blot analysis relative to control
Format: cell-based
Kindly state Activity for each of the entries shown.
State just the number; it will be interpreted in %.

Using the record for "COc1cc(-c2cn(C)c(=O)c3cnccc23)cc(OC)c1CN1CCN(CCOCCOCC(=O)N[C@H](C(=O)N2C[C@H](O)C[C@H]2C(=O)NCc2ccc(-c3scnc3C)cc2)C(C)(C)C)CC1" , report its Activity.
83

Using the record for "COc1cc(-c2cn(C)c(=O)c3cnccc23)cc(OC)c1CN1CCN(CCOCCOCCOCCOCCOCC(=O)N[C@H](C(=O)N2C[C@H](O)C[C@H]2C(=O)NCc2ccc(-c3scnc3C)cc2)C(C)(C)C)CC1" , report its Activity.
54

Using the record for "COc1cc(-c2cn(C)c(=O)c3cnccc23)cc(OC)c1CN1CCN(CCCCCOCCOCC(=O)N[C@H](C(=O)N2C[C@H](O)C[C@H]2C(=O)NCc2ccc(-c3scnc3C)cc2)C(C)(C)C)CC1" , report its Activity.
80

---

Kindly state Activity for each of the entries shown.
ASSAYED_SYSTEM: von Hippel-Lindau disease tumor suppressor/Bromodomain-containing protein 7 (Homo sapiens) (UniProt Q9NPI1+P40337)
TEST: PROTAC activity at VHL/BRD7 in human Ri-1 cells assessed as remaining BRD7 protein level at 1 uM incubated for 2 hrs by Western blot analysis relative to control
Format: cell-based
State just the number; it will be interpreted in %.

Using the record for "COc1cc(-c2cn(C)c(=O)c3cnccc23)cc(OC)c1CN1CCN(CCOCCOCCOc2cc(-c3scnc3C)ccc2CNC(=O)[C@@H]2C[C@@H](O)CN2C(=O)[C@@H](NC(=O)C2(F)CC2)C(C)(C)C)CC1" , report its Activity.
127

Using the record for "COc1cc(-c2cn(C)c(=O)c3cnccc23)cc(OC)c1CN1CCN(CCOCCOc2cc(-c3scnc3C)ccc2CNC(=O)[C@@H]2C[C@@H](O)CN2C(=O)[C@@H](NC(=O)C2(F)CC2)C(C)(C)C)CC1" , report its Activity.
63

Using the record for "COc1cc(-c2cn(C)c(=O)c3cnccc23)c(OC)cc1CN1CCN(CCCCCOCCOc2cc(-c3scnc3C)ccc2CNC(=O)[C@@H]2C[C@@H](O)CN2C(=O)[C@@H](NC(=O)C2(F)CC2)C(C)(C)C)CC1" , report its Activity.
102

Using the record for "COc1cc(-c2cn(C)c(=O)c3cnccc23)c(OC)cc1CN1CC(NC(=O)COCCOc2cc(-c3scnc3C)ccc2CNC(=O)[C@@H]2C[C@@H](O)CN2C(=O)[C@@H](NC(=O)C2(F)CC2)C(C)(C)C)C1" , report its Activity.
112

Using the record for "COc1cc(-c2cn(C)c(=O)c3cnccc23)cc(OC)c1CN1CCN(CCCCCOc2cc(-c3scnc3C)ccc2CNC(=O)[C@@H]2C[C@@H](O)CN2C(=O)[C@@H](NC(=O)C2(F)CC2)C(C)(C)C)CC1" , report its Activity.
10

Using the record for "COc1cc(-c2cn(C)c(=O)c3cnccc23)cc(OC)c1CN1CC(NC(=O)CCCCOc2cc(-c3scnc3C)ccc2CNC(=O)[C@@H]2C[C@@H](O)CN2C(=O)[C@@H](NC(=O)C2(F)CC2)C(C)(C)C)C1" , report its Activity.
70

Using the record for "COc1cc(-c2cn(C)c(=O)c3cnccc23)cc(OC)c1CN1CCN(CCOCCOCCOCCOc2cc(-c3scnc3C)ccc2CNC(=O)[C@@H]2C[C@@H](O)CN2C(=O)[C@@H](NC(=O)C2(F)CC2)C(C)(C)C)CC1" , report its Activity.
125

Using the record for "COc1cc(-c2cn(C)c(=O)c3cnccc23)cc(OC)c1CN1CC(NC(=O)COCCOCCOCCOc2cc(-c3scnc3C)ccc2CNC(=O)[C@@H]2C[C@@H](O)CN2C(=O)[C@@H](NC(=O)C2(F)CC2)C(C)(C)C)C1" , report its Activity.
98

Using the record for "COc1cc(-c2cn(C)c(=O)c3cnccc23)cc(OC)c1CN1CC(NC(=O)CCCCOCCOc2cc(-c3scnc3C)ccc2CNC(=O)[C@@H]2C[C@@H](O)CN2C(=O)[C@@H](NC(=O)C2(F)CC2)C(C)(C)C)C1" , report its Activity.
106

Using the record for "COc1cc(-c2cn(C)c(=O)c3cnccc23)c(OC)cc1CN1CC(NC(=O)CCCCOc2cc(-c3scnc3C)ccc2CNC(=O)[C@@H]2C[C@@H](O)CN2C(=O)[C@@H](NC(=O)C2(F)CC2)C(C)(C)C)C1" , report its Activity.
131

Using the record for "COc1cc(-c2cn(C)c(=O)c3cnccc23)c(OC)cc1CN1CCN(CCOCCOCCOCCOc2cc(-c3scnc3C)ccc2CNC(=O)[C@@H]2C[C@@H](O)CN2C(=O)[C@@H](NC(=O)C2(F)CC2)C(C)(C)C)CC1" , report its Activity.
134

Using the record for "COc1cc(-c2cn(C)c(=O)c3cnccc23)cc(OC)c1CN1CC(NC(=O)COCCOc2cc(-c3scnc3C)ccc2CNC(=O)[C@@H]2C[C@@H](O)CN2C(=O)[C@@H](NC(=O)C2(F)CC2)C(C)(C)C)C1" , report its Activity.
125

Where do the numbers come from? From ChEMBL document CHEMBL5260840.
